tested on: Streptococcus pneumoniae; assay: Antibacterial activity against erythromycin-resistant Streptococcus pneumoniae AB11 expressing erm and mef gene by the broth microdilution method; type: functional
Quick reference: MIC of the listed items.
ENDPOINT_LABEL: MIC (µg/mL)

>>> measured_result("CC[C@H]1OC(=O)[C@H](C)[C@@H](O[C@H]2C[C@@](C)(OC)[C@@H](OC(=O)NNC(=O)c3ccc(Cl)cc3Cl)[C@H](C)O2)[C@H](C)[C@@H](O[C@@H]2O[C@H](C)C[C@H](N(C)C)[C@H]2O)[C@](C)(O)C[C@@H](C)CN(C)[C@H](C)[C@H]2OC(=O)O[C@@]21C")
16
>>> measured_result("CC[C@H]1OC(=O)[C@H](C)[C@@H](O[C@H]2C[C@@](C)(OC)[C@@H](OC(=O)NNC(=O)c3ccccc3OC)[C@H](C)O2)[C@H](C)[C@@H](O[C@@H]2O[C@H](C)C[C@H](N(C)C)[C@H]2O)[C@](C)(O)C[C@@H](C)CN(C)[C@H](C)[C@H]2OC(=O)O[C@@]21C")
32
>>> measured_result("CC[C@H]1OC(=O)[C@H](C)[C@@H](O[C@H]2C[C@@](C)(OC)[C@@H](OC(=O)NCCCCNC(=O)c3ccc(Br)cc3)[C@H](C)O2)[C@H](C)[C@@H](O[C@@H]2O[C@H](C)C[C@H](N(C)C)[C@H]2O)[C@](C)(O)C[C@@H](C)CN(C)[C@H](C)[C@H]2OC(=O)O[C@@]21C")
16

###

Quick reference: MIC of the listed items.
system: Streptococcus pneumoniae; assay: Antibacterial activity against erythromycin-resistant Streptococcus pneumoniae A22072 expressing mef gene by the broth microdilution method; assay type: functional
ENDPOINT_LABEL: MIC (mg/L)

>>> measured_result("CC[C@H]1OC(=O)[C@H](C)[C@@H](O[C@H]2C[C@@](C)(OC)[C@@H](OC(=O)NCCNC(=O)c3ccc(OC)cc3)[C@H](C)O2)[C@H](C)[C@@H](O[C@@H]2O[C@H](C)C[C@H](N(C)C)[C@H]2O)[C@](C)(O)C[C@@H](C)CN(C)[C@H](C)[C@H]2OC(=O)O[C@@]21C")
4
>>> measured_result("CC[C@H]1OC(=O)[C@H](C)[C@@H](O[C@H]2C[C@@](C)(OC)[C@@H](OC(=O)NNC(=O)c3ccc(C)cc3)[C@H](C)O2)[C@H](C)[C@@H](O[C@@H]2O[C@H](C)C[C@H](N(C)C)[C@H]2O)[C@](C)(O)C[C@@H](C)CN(C)[C@H](C)[C@H]2OC(=O)O[C@@]21C")
0.12
>>> measured_result("CC[C@H]1OC(=O)[C@H](C)[C@@H](O[C@H]2C[C@@](C)(OC)[C@@H](OC(=O)NNC(=O)c3ccc([N+](=O)[O-])cc3)[C@H](C)O2)[C@H](C)[C@@H](O[C@@H]2O[C@H](C)C[C@H](N(C)C)[C@H]2O)[C@](C)(O)C[C@@H](C)CN(C)[C@H](C)[C@H]2OC(=O)O[C@@]21C")
1
>>> measured_result("CC[C@H]1OC(=O)[C@H](C)[C@@H](O[C@H]2C[C@@](C)(OC)[C@@H](OC(=O)NCCNC(=O)c3ccc(OC)c(OC)c3)[C@H](C)O2)[C@H](C)[C@@H](O[C@@H]2O[C@H](C)C[C@H](N(C)C)[C@H]2O)[C@](C)(O)C[C@@H](C)CN(C)[C@H](C)[C@H]2OC(=O)O[C@@]21C")
4
>>> measured_result("CC[C@H]1OC(=O)[C@H](C)[C@@H](O[C@H]2C[C@@](C)(OC)[C@@H](O)[C@H](C)O2)[C@H](C)[C@@H](O[C@@H]2O[C@H](C)C[C@H](N(C)C)[C@H]2O)[C@](C)(O)C[C@@H](C)CN(C)[C@H](C)[C@@H](O)[C@]1(C)O [AZITHROMYCIN]")
4
>>> measured_result("CC[C@H]1OC(=O)[C@H](C)[C@@H](O[C@H]2C[C@@](C)(OC)[C@@H](OC(=O)NNC(=O)c3ccccc3OC)[C@H](C)O2)[C@H](C)[C@@H](O[C@@H]2O[C@H](C)C[C@H](N(C)C)[C@H]2O)[C@](C)(O)C[C@@H](C)CN(C)[C@H](C)[C@H]2OC(=O)O[C@@]21C")
0.5
>>> measured_result("CC[C@H]1OC(=O)[C@H](C)[C@@H](O[C@H]2C[C@@](C)(OC)[C@@H](OC(=O)NCCCCNC(=O)c3ccc(Cl)cc3Cl)[C@H](C)O2)[C@H](C)[C@@H](O[C@@H]2O[C@H](C)C[C@H](N(C)C)[C@H]2O)[C@](C)(O)C[C@@H](C)CN(C)[C@H](C)[C@H]2OC(=O)O[C@@]21C")
1

###

test system: Staphylococcus aureus; test: Antibacterial activity against […] Staphylococcus aureus ATCC 29213 by the broth microdilution method; assay type: functional
ENDPOINT_LABEL: MIC (µg/mL)

>>> measured_result("CC[C@H]1OC(=O)[C@H](C)[C@@H](O[C@H]2C[C@@](C)(OC)[C@@H](OC(=O)NCCCCNC(=O)c3ccc(Cl)cc3Cl)[C@H](C)O2)[C@H](C)[C@@H](O[C@@H]2O[C@H](C)C[C@H](N(C)C)[C@H]2O)[C@](C)(O)C[C@@H](C)CN(C)[C@H](C)[C@H]2OC(=O)O[C@@]21C")
16
>>> measured_result("CC[C@H]1OC(=O)[C@H](C)[C@@H](O[C@H]2C[C@@](C)(OC)[C@@H](OC(=O)NCCCCNC(=O)c3ccc([N+](=O)[O-])cc3)[C@H](C)O2)[C@H](C)[C@@H](O[C@@H]2O[C@H](C)C[C@H](N(C)C)[C@H]2O)[C@](C)(O)C[C@@H](C)CN(C)[C@H](C)[C@H]2OC(=O)O[C@@]21C")
4
>>> measured_result("CC[C@H]1OC(=O)[C@H](C)[C@@H](O[C@H]2C[C@@](C)(OC)[C@@H](OC(=O)NNC(=O)c3ccc(Cl)cc3Cl)[C@H](C)O2)[C@H](C)[C@@H](O[C@@H]2O[C@H](C)C[C@H](N(C)C)[C@H]2O)[C@](C)(O)C[C@@H](C)CN(C)[C@H](C)[C@H]2OC(=O)O[C@@]21C")
16
>>> measured_result("CC[C@H]1OC(=O)[C@H](C)[C@@H](O[C@H]2C[C@@](C)(OC)[C@@H](OC(=O)NCCNC(=O)c3ccc(Br)cc3)[C@H](C)O2)[C@H](C)[C@@H](O[C@@H]2O[C@H](C)C[C@H](N(C)C)[C@H]2O)[C@](C)(O)C[C@@H](C)CN(C)[C@H](C)[C@H]2OC(=O)O[C@@]21C")
4
>>> measured_result("CC[C@H]1OC(=O)[C@H](C)[C@@H](O[C@H]2C[C@@](C)(OC)[C@@H](OC(=O)NCCCCNC(=O)c3ccc(OC)cc3)[C@H](C)O2)[C@H](C)[C@@H](O[C@@H]2O[C@H](C)C[C@H](N(C)C)[C@H]2O)[C@](C)(O)C[C@@H](C)CN(C)[C@H](C)[C@H]2OC(=O)O[C@@]21C")
32
>>> measured_result("CC[C@H]1OC(=O)[C@H](C)[C@@H](O[C@H]2C[C@@](C)(OC)[C@@H](OC(=O)NCCCCNC(=O)c3ccc(OC)c(OC)c3)[C@H](C)O2)[C@H](C)[C@@H](O[C@@H]2O[C@H](C)C[C@H](N(C)C)[C@H]2O)[C@](C)(O)C[C@@H](C)CN(C)[C@H](C)[C@H]2OC(=O)O[C@@]21C")
64
>>> measured_result("CC[C@H]1OC(=O)[C@H](C)[C@@H](O[C@H]2C[C@@](C)(OC)[C@@H](OC(=O)NCCCCNC(=O)c3ccc(Cl)cc3)[C@H](C)O2)[C@H](C)[C@@H](O[C@@H]2O[C@H](C)C[C@H](N(C)C)[C@H]2O)[C@](C)(O)C[C@@H](C)CN(C)[C@H](C)[C@H]2OC(=O)O[C@@]21C")
8

###

system: Streptococcus pneumoniae; assay: Antibacterial activity against erythromycin-resistant Streptococcus pneumoniae AB11 expressing erm and mef gene by the broth microdilution method; format: functional
ENDPOINT_LABEL: MIC (µg/mL)

>>> measured_result("CC[C@H]1OC(=O)[C@H](C)[C@@H](O[C@H]2C[C@@](C)(OC)[C@@H](OC(=O)NCCNC(=O)c3ccc(Cl)cc3)[C@H](C)O2)[C@H](C)[C@@H](O[C@@H]2O[C@H](C)C[C@H](N(C)C)[C@H]2O)[C@](C)(O)C[C@@H](C)CN(C)[C@H](C)[C@H]2OC(=O)O[C@@]21C")
32
>>> measured_result("CC[C@H]1OC(=O)[C@H](C)[C@@H](O[C@H]2C[C@@](C)(OC)[C@@H](O)[C@H](C)O2)[C@H](C)[C@@H](O[C@@H]2O[C@H](C)C[C@H](N(C)C)[C@H]2O)[C@](C)(O)C[C@@H](C)CN(C)[C@H](C)[C@@H](O)[C@]1(C)O")
256
>>> measured_result("CC[C@H]1OC(=O)[C@H](C)[C@@H](O[C@H]2C[C@@](C)(OC)[C@@H](OC(=O)NNC(=O)c3ccc(Br)cc3)[C@H](C)O2)[C@H](C)[C@@H](O[C@@H]2O[C@H](C)C[C@H](N(C)C)[C@H]2O)[C@](C)(O)C[C@@H](C)CN(C)[C@H](C)[C@H]2OC(=O)O[C@@]21C")
16
>>> measured_result("CC[C@H]1OC(=O)[C@H](C)[C@@H](O[C@H]2C[C@@](C)(OC)[C@@H](OC(=O)NCCCCNC(=O)c3ccc(Cl)cc3)[C@H](C)O2)[C@H](C)[C@@H](O[C@@H]2O[C@H](C)C[C@H](N(C)C)[C@H]2O)[C@](C)(O)C[C@@H](C)CN(C)[C@H](C)[C@H]2OC(=O)O[C@@]21C")
16
>>> measured_result("CC[C@H]1OC(=O)[C@H](C)[C@@H](O[C@H]2C[C@@](C)(OC)[C@@H](OC(=O)NCCNC(=O)c3ccc(F)cc3)[C@H](C)O2)[C@H](C)[C@@H](O[C@@H]2O[C@H](C)C[C@H](N(C)C)[C@H]2O)[C@](C)(O)C[C@@H](C)CN(C)[C@H](C)[C@H]2OC(=O)O[C@@]21C")
32
>>> measured_result("CC[C@H]1OC(=O)[C@H](C)[C@@H](O[C@H]2C[C@@](C)(OC)[C@@H](OC(=O)NCCCCNC(=O)c3ccc(F)cc3)[C@H](C)O2)[C@H](C)[C@@H](O[C@@H]2O[C@H](C)C[C@H](N(C)C)[C@H]2O)[C@](C)(O)C[C@@H](C)CN(C)[C@H](C)[C@H]2OC(=O)O[C@@]21C")
64
>>> measured_result("CC[C@H]1OC(=O)[C@H](C)[C@@H](O[C@H]2C[C@@](C)(OC)[C@@H](OC(=O)NNC(=O)c3ccc(F)cc3)[C@H](C)O2)[C@H](C)[C@@H](O[C@@H]2O[C@H](C)C[C@H](N(C)C)[C@H]2O)[C@](C)(O)C[C@@H](C)CN(C)[C@H](C)[C@H]2OC(=O)O[C@@]21C")
64
>>> measured_result("CC[C@H]1OC(=O)[C@H](C)[C@@H](O[C@H]2C[C@@](C)(OC)[C@@H](OC(=O)NCCCCNC(=O)c3ccc(OC)cc3)[C@H](C)O2)[C@H](C)[C@@H](O[C@@H]2O[C@H](C)C[C@H](N(C)C)[C@H]2O)[C@](C)(O)C[C@@H](C)CN(C)[C@H](C)[C@H]2OC(=O)O[C@@]21C")
16
>>> measured_result("CC[C@H]1OC(=O)[C@H](C)[C@@H](O[C@H]2C[C@@](C)(OC)[C@@H](OC(=O)NCCCCNC(=O)c3ccc([N+](=O)[O-])cc3)[C@H](C)O2)[C@H](C)[C@@H](O[C@@H]2O[C@H](C)C[C@H](N(C)C)[C@H]2O)[C@](C)(O)C[C@@H](C)CN(C)[C@H](C)[C@H]2OC(=O)O[C@@]21C")
16
>>> measured_result("CC[C@H]1OC(=O)[C@H](C)[C@@H](O[C@H]2C[C@@](C)(OC)[C@@H](OC(=O)NCCCCNC(=O)c3ccc(Cl)cc3Cl)[C@H](C)O2)[C@H](C)[C@@H](O[C@@H]2O[C@H](C)C[C@H](N(C)C)[C@H]2O)[C@](C)(O)C[C@@H](C)CN(C)[C@H](C)[C@H]2OC(=O)O[C@@]21C")
16
>>> measured_result("CC[C@H]1OC(=O)[C@H](C)[C@@H](O[C@H]2C[C@@](C)(OC)[C@@H](OC(=O)NNC(=O)c3ccc(OC)c(OC)c3)[C@H](C)O2)[C@H](C)[C@@H](O[C@@H]2O[C@H](C)C[C@H](N(C)C)[C@H]2O)[C@](C)(O)C[C@@H](C)CN(C)[C@H](C)[C@H]2OC(=O)O[C@@]21C")
64
>>> measured_result("CC[C@H]1OC(=O)[C@H](C)[C@@H](O[C@H]2C[C@@](C)(OC)[C@@H](OC(=O)NCCCCNC(=O)c3ccc(C)cc3)[C@H](C)O2)[C@H](C)[C@@H](O[C@@H]2O[C@H](C)C[C@H](N(C)C)[C@H]2O)[C@](C)(O)C[C@@H](C)CN(C)[C@H](C)[C@H]2OC(=O)O[C@@]21C")
16
>>> measured_result("CC[C@H]1OC(=O)[C@H](C)[C@@H](O[C@H]2C[C@@](C)(OC)[C@@H](OC(=O)NCCNC(=O)c3ccc(OC)cc3)[C@H](C)O2)[C@H](C)[C@@H](O[C@@H]2O[C@H](C)C[C@H](N(C)C)[C@H]2O)[C@](C)(O)C[C@@H](C)CN(C)[C@H](C)[C@H]2OC(=O)O[C@@]21C")
64

Where do these numbers come from? They come from ChEMBL document CHEMBL1828549.
